Origin of values: patent US20090092617A1

Target: T1, Human ErbB4 extracellular part fused to Fc of human IgG1 (human, UniProt Q15303 26-651)
T1 construct: extracellular domain; also called ErbB4-Fc chimeric protein; not shown: Fc region of human IgG1
T1 sequence (looked up): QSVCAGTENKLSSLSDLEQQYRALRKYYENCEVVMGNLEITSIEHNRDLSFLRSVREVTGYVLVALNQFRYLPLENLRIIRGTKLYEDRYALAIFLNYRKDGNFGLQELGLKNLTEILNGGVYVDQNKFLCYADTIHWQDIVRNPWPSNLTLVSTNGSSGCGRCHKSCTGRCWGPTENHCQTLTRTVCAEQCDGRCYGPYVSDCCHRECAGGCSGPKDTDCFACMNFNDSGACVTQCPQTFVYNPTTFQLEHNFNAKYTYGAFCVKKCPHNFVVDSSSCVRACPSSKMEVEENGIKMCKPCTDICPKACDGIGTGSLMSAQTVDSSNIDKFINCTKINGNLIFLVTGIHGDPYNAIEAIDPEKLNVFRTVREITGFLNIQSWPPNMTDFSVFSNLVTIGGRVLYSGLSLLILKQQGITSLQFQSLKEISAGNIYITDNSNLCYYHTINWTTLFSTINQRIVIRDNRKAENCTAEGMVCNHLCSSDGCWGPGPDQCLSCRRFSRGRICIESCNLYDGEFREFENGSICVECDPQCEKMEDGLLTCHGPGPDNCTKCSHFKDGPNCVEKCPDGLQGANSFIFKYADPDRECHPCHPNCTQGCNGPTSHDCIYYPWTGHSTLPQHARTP
Test: SPR (BIAcore 2000), peptide dendrimer immobilized, receptor ECD-Fc injected; mean ± SEM
Where no end group is shown, it is not given here.
Observable: Kd (nM)
All answers are understood in nM, so give the number only.

Suppose we examine the binder FVYNPTTFQLEMNFNAK (also: tetrameric dendrimer: four monomers coupled to a lysine backbone, also called 4DL) [Inherbin4 peptide, tetrameric dendrimer] ; what Kd value has been reported?
90.4
